// data source = ChEMBL document CHEMBL1201862

Tested on: NCI-H522
Test: NCI tumour cell line growth inhibition, 48 h
Activity calls are given as the source filed them. Rule as the data show it: active = GI50 up to about 1.1 µM and inactive = higher.
Give measured GI50 for each item. Keep answers brief.

# get_value(readout= GI50, system= NCI-H522) for CCCCn1c(C)c(C)c2c1NN=C(C#N)S2(=O)=O
64.7 µM (inactive)

Form field: GI50 recorded for C=CCCCCCCCCC(=O)NS(=O)(=O)c1ccccc1 with NCI-H522 (enter value)
55.3 µM (inactive)

Request: GI50, test system NCI-H522, entry C[S+]([O-])c1ncc2c(n1)-c1ccccc1OC2 (stereo unspecified)
> 100 µM (inactive)

State its GI50 on NCI-H522: CSC(=N\c1ccccc1)/N=C(\SCc1ccccc1)N(C)C
0.21 µM (active)

Recall the recorded GI50 for CCOC(=O)C1CCC(=O)N1C(=O)c1ccccc1Cl (stereo unspecified) with NCI-H522 and state it.
> 100 µM (inactive)

// lookup GI50 | system=NCI-H522 | key= CC[C@@H]1CSC(/C=C/C2OC3OC(C)(C)OC3C3OC(C)(C)OC23)=N1 (stereo partly specified)
3.18 µM (inactive)

// lookup GI50 | system=NCI-H522 | key= O=C(NCCO)c1ccc(Cl)cc1
> 100 µM (inactive)

Short answer please: GI50, NCI-H522, entry CCCCCCc1cc2cc(-c3cn4ccsc4n3)c(=O)oc2cc1O
29.2 µM (inactive)

Field: GI50 (NCI-H522). Entry: O=[N+]([O-])c1cc(-c2nc(-c3ccccc3)c(-c3ccccc3)[nH]2)c(O)c([N+](=O)[O-])c1
20.2 µM (inactive)

Requested read-out GI50, target or system NCI-H522, entry C=CS(=O)(=O)c1c2cc(OC)ccc2nc2ccc(OC)cc12
1.73 µM (inactive)

Test system NCI-H522; read-out GI50; what value for Cc1cc(Cl)ccc1NC1=NC(=O)C(CC(=O)Nc2cccc(Cl)c2)S1 (stereo unspecified) ?
26.5 µM (inactive)
